Biological target: T1, Arabidopsis thaliana phytochrome B, N-terminal fragment encompassing the N-terminal extension (NTE) and the … (Arabidopsis thaliana, UniProt P14713 1-651, phycocyanobilin chromophore, covalently bound)
T1 construct: Phytochrome B, Arabidopsis thaliana, GenBank CAA35222.1; N-terminal fragment with the NTE and the PCM (nPAS-GAF-PHY), lacking PAS1, PAS2 and the HKRD; source: E. coli LOBSTR, purified (Co2+-NTA IMAC, anion exchange); plasmid also encodes Synechocystis sp. heme oxygenase 1 and PcyA
T1 sequence (looked up): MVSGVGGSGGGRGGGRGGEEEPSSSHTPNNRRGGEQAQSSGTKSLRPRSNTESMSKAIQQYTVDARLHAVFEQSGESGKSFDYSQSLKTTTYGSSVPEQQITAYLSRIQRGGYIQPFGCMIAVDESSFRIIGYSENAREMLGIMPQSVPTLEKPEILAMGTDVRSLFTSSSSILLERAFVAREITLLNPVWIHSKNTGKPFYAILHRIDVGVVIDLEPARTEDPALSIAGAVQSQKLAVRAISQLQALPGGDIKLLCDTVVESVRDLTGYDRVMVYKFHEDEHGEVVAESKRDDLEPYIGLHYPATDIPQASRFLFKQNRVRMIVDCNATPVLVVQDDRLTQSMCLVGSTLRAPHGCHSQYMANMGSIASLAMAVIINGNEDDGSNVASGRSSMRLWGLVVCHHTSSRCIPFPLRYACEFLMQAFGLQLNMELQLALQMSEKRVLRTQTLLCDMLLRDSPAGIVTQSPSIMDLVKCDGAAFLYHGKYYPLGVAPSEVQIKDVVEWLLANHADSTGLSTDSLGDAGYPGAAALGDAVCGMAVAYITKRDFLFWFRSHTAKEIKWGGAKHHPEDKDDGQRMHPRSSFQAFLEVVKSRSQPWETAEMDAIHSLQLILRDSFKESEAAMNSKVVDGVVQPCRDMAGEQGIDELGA
Assay: FRET or BRET; equilibrium titration: 20 nM P6A-mScarlet-I with 0 to 2,000 nM AtPhyB PCM at 15 °C after red light (658 nm); 50 mM Tris/HCl pH 8.0, 20 mM NaCl, 100 μg/mL BSA; single-site binding isotherm
Conditions: both partners purified
No end group written: not given here.
value kind: Kd (nM)

| binder | reading unit | reported value |
| --- | --- | --- |
| DQEYMELVFENGQILAKGQRSNVSLHNQRTKSIMDLYEAE-{mScarlet‑I} (domain or fragment, Arabidopsis thaliana, UniProt Q8L5W7 14-53, looked up, mScarlet-I: GenBank APD76536; source: E. coli LOBSTR, purified (IMAC, SENP2 cleavage, second IMAC, optionally anion exchange); not shown: His6-SUMO, N-terminal, cleaved; mScarlet-I, C-terminal, kept) [P6A-mScarlet-I (Arabidopsis PIF6 residues 14 to 53, APB.A portion, fused to mScarlet-I)] | nM | 130 |
